Molecular target: PrKX(h) (Homo sapiens, UniProt P51817)
Sequence (P51817 whole entry): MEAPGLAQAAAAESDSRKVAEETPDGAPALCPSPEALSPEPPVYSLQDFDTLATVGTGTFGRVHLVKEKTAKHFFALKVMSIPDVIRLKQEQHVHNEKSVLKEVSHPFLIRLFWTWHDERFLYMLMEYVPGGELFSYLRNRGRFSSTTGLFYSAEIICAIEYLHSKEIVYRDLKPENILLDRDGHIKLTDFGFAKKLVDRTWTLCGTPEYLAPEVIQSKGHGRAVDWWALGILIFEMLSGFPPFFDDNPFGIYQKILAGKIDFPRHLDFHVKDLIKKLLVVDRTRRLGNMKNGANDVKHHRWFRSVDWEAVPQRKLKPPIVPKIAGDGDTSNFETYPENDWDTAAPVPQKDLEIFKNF
Assay: Kinase Profiling Assay
Format: biochemical
Details: peptide 100 μM
No end group written: not given here.
attribute-measured: % activity (%)
Kindly answer with a numeric value in %, unit omitted.

Recorded % activity, per entry:
sequence-content: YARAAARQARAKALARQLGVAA [MMI-0100]
measurement-target: PrKX(h) (Homo sapiens, UniProt P51817)
% activity [%]: 84
//
sequence-content: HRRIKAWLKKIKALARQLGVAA (Mammal) [MMI-0500]
measurement-target: PrKX(h) (Homo sapiens, UniProt P51817)
% activity [%]: 57
//
sequence-content: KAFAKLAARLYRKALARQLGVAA [MMI-0400]
measurement-target: PrKX(h) (Homo sapiens, UniProt P51817)
% activity [%]: 76

Ask | Query (sequence): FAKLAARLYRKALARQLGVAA [MMI-0300] ; field requested: % activity
Reply | 61

* * *

Listed here are sequences together with their documented % activity.
Target: mTOR/FKBP12(h) (Homo sapiens, UniProt P42345)
Construct: purchased Millipore
Sequence (P42345 1362-2549 limits assumed): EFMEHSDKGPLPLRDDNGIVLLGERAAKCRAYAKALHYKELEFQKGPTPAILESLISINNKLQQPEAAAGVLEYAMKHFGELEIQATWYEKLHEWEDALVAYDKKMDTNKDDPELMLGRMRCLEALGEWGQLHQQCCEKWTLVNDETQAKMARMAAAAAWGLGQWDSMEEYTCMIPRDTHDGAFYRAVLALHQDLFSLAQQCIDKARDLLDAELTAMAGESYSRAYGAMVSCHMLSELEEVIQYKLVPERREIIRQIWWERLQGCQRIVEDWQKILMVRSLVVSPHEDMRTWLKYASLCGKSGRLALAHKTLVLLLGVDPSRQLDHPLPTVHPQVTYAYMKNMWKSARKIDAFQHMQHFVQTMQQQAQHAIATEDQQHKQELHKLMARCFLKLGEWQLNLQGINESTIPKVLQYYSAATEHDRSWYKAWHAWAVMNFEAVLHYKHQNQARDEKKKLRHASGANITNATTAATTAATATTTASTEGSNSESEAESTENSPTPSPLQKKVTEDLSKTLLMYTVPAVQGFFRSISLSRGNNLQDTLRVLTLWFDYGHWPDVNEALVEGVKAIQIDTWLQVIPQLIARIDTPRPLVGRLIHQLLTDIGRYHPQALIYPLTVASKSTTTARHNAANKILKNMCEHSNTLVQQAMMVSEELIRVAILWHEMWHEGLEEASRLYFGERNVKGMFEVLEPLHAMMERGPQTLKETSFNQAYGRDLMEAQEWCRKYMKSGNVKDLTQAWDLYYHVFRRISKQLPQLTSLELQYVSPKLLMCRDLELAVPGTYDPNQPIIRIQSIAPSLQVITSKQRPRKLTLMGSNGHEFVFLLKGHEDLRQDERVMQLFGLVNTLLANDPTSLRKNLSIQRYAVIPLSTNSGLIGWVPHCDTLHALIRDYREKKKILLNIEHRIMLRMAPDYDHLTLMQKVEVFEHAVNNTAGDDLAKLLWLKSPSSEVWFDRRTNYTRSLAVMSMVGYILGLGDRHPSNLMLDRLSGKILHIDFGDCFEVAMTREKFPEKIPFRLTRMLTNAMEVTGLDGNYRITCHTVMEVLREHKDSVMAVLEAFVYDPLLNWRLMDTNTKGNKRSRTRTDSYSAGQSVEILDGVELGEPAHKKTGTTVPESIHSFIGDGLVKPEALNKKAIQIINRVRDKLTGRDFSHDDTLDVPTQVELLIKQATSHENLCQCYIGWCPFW
Experiment: Kinase Profiling Assay
Assay type: biochemical
Conditions: peptide 100 μM
Kindly answer with a numeric value in %, unit omitted.

sequence-content: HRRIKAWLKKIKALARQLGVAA (Mammal) [MMI-0500]
% activity [%]: 140
//
sequence-content: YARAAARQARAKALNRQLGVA (Mammal) [MMI-0200]
% activity [%]: 118

Ask | Please provide the recorded % activity for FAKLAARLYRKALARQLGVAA [MMI-0300] , tested on mTOR/FKBP12(h) (Homo sapiens, UniProt P42345).
Reply | 145

Ask | Please provide the recorded % activity for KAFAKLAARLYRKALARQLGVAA [MMI-0400] , tested on mTOR/FKBP12(h) (Homo sapiens, UniProt P42345).
Reply | 125

* * *

Listed here are sequences together with their documented % activity.
Biological target: NEK11(h) (Homo sapiens)
Construct: purchased Millipore
Sequence (Q8NG66 1-645): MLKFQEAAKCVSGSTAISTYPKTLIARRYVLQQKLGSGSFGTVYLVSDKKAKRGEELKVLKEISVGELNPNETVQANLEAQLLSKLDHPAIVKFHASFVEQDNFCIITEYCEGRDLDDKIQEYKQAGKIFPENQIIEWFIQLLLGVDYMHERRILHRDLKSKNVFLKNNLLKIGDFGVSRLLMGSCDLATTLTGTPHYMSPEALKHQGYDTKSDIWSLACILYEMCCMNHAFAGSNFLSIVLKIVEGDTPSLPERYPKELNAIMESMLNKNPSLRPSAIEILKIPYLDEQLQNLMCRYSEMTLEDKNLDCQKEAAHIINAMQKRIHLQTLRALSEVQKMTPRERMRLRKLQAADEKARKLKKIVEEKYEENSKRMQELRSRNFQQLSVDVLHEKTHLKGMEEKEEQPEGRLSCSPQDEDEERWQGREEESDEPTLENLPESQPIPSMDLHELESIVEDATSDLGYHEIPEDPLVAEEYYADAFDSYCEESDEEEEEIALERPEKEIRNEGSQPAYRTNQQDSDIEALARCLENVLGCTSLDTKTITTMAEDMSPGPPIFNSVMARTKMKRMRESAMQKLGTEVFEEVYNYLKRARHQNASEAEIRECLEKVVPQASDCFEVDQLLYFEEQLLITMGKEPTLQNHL
Assay: Kinase Profiling Assay
Format: biochemical
Conditions: peptide 100 μM
Kindly answer with a numeric value in %, unit omitted.

Recorded % activity, per entry:
sequence-content: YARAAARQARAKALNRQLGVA (Mammal) [MMI-0200]
measurement-target: NEK11(h) (Homo sapiens)
value-reported: 95

sequence-content: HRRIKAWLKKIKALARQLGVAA (Mammal) [MMI-0500]
measurement-target: NEK11(h) (Homo sapiens)
value-reported: 2

sequence-content: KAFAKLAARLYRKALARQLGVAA [MMI-0400]
measurement-target: NEK11(h) (Homo sapiens)
value-reported: 33

Would you kindly look at the next entry?
Ask | Query (sequence): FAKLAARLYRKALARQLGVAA [MMI-0300] ; field requested: % activity
Reply | 53

* * *

Target: BrSK2(h) (Homo sapiens)
Sequence (Q8IWQ3 1-736): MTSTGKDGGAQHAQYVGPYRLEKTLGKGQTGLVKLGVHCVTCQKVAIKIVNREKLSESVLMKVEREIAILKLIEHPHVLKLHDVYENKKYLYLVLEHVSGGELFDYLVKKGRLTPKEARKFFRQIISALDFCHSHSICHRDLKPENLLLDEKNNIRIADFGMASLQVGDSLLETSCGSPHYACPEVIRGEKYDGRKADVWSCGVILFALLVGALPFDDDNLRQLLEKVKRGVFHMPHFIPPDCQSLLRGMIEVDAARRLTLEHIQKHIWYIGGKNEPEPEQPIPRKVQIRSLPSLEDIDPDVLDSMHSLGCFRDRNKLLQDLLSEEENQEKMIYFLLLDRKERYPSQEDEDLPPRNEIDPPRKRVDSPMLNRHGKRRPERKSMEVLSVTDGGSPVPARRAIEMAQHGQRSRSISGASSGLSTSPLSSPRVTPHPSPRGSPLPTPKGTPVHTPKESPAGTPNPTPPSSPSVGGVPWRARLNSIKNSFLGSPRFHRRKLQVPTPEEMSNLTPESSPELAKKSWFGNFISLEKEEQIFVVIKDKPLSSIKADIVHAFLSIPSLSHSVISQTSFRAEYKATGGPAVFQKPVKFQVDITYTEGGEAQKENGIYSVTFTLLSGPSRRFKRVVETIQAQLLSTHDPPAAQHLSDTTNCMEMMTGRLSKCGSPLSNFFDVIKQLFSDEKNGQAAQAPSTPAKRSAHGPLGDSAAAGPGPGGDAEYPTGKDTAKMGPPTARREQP
Assay: Kinase Profiling Assay
Assay type: biochemical
Conditions: peptide 100 μM
Experimental: Every kinase activity measurement was conducted in duplicate. Specifically, in these assays, a positively charged substrate is phosphorylated with a radiolabeled phosphate group from an ATP if the kinase is not inhibited by an inhibitor peptide. The positively charged substrate then is attracted to a negatively charged filter membrane, quantified with a scintillation counter, and compared to a 100% activity control. […]
No end group written: not given here.
attribute-measured: % activity (%)
Kindly answer with a numeric value in %, unit omitted.

sequence-content: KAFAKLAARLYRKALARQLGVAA [MMI-0400]
% activity [%]: 86
--
sequence-content: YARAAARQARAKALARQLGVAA [MMI-0100]
% activity [%]: 129
--
sequence-content: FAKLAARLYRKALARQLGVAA [MMI-0300]
% activity [%]: 83

Ask | Query (sequence): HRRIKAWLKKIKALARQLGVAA (Mammal) [MMI-0500] ; field requested: % activity
Reply | 84

* * *

Listed here are sequences together with their documented % activity.
Biological target: FGFR2(h) (Homo sapiens, UniProt P21802)
Assay: Kinase Profiling Assay
Format: biochemical
Conditions: peptide 100 μM
Kindly answer with a numeric value in %, unit omitted.

sequence-content: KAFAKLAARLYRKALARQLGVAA [MMI-0400]
result-units: %
% activity: 18

Ask | Please provide the recorded % activity for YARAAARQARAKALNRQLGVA (Mammal) [MMI-0200] , tested on FGFR2(h) (Homo sapiens, UniProt P21802).
Reply | 73

Ask | Please provide the recorded % activity for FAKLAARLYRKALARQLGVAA [MMI-0300] , tested on FGFR2(h) (Homo sapiens, UniProt P21802).
Reply | 14

Ask | Please provide the recorded % activity for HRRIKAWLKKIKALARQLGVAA (Mammal) [MMI-0500] , tested on FGFR2(h) (Homo sapiens, UniProt P21802).
Reply | 12

* * *

Molecular target: MST2(h) (Homo sapiens, UniProt Q13188)
Construct: purchased Millipore
Sequence (Q13188 1-491): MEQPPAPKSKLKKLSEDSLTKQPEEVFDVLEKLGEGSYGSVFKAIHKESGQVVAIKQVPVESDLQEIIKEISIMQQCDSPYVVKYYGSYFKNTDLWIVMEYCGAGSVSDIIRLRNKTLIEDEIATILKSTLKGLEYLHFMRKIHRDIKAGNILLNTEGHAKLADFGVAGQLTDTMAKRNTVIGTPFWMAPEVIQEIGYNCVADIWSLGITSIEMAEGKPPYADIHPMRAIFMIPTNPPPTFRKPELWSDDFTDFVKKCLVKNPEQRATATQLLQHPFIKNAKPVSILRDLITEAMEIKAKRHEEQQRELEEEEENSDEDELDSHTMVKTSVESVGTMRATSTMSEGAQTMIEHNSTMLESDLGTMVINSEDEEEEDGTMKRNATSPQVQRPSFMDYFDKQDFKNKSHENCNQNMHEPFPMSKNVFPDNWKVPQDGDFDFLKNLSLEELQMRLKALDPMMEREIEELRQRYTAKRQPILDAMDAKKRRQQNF
Assay: Kinase Profiling Assay
Format: biochemical
Settings: peptide 100 μM
No end group written: not given here.
Listed here are sequences together with their documented % activity.
Kindly answer with a numeric value in %, unit omitted.

sequence-content: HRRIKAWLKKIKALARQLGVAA (Mammal) [MMI-0500]
measurement-target: MST2(h) (Homo sapiens, UniProt Q13188)
% activity, %: 2
//
sequence-content: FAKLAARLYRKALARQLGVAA [MMI-0300]
measurement-target: MST2(h) (Homo sapiens, UniProt Q13188)
% activity, %: 19
//
sequence-content: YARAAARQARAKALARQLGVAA [MMI-0100]
measurement-target: MST2(h) (Homo sapiens, UniProt Q13188)
% activity, %: 98

Would you kindly look at the next entry?
Ask | Query (sequence): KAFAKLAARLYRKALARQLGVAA [MMI-0400] ; field requested: % activity
Reply | 11
